Form field: Kp (one value per entry).
assay: Ratio of drug level in brain to plasma in iv dosed rat; type: ADME, organism-based; details: read-out: BPR

Here is how some molecules turned out for Kp.
1. C[C@@H]1CCCN1CCCOc1ccc(-c2ccc(=O)n(-c3ncccn3)n2)cc1 | 0.5
2. C[C@@H]1CCCN1CCCOc1ccc(-c2n[nH]c(=O)cc2-c2ccccn2)cc1 | < 1

Name the reported Kp value associated with the molecule C[C@@H]1CCCN1CCCOc1ccc(-c2cc(-c3ccccn3)c(=O)[nH]n2)cc1
< 1

* * *

target: Cytochrome P450 2C19 (Homo sapiens); assay: Inhibition of CYP2C19; format: ADME
Sequence (P33261 whole entry): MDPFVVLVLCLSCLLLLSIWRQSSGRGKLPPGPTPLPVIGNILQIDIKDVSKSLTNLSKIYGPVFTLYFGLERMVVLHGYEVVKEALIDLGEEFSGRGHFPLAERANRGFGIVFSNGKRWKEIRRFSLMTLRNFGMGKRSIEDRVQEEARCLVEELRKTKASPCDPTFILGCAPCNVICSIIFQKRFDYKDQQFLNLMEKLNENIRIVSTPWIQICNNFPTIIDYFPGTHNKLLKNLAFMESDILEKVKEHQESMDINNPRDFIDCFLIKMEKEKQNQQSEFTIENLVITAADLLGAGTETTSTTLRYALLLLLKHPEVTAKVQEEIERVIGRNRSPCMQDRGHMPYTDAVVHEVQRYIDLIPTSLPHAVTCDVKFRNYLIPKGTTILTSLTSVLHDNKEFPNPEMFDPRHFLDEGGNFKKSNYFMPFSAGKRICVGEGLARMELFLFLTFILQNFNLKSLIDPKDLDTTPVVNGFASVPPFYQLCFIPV
quantity kind: IC50

Which value of IC50 has been reported for C[C@@H]1CCCN1CCCOc1ccc(-c2ccc(=O)n(C)n2)cc1F in the records?
> 30 µM

* * *

assay: Volume of distribution in iv dosed rat; assay type: ADME, organism-based; conditions: in vivo
quantity kind: Vd (L/kg)
Give just the number in L/kg; leave the unit off.

Requested read-out: Vd. Entry: C[C@@H]1CCCN1CCCOc1ccc(-c2ccc(=O)n(-c3ncccn3)n2)cc1
3.9

* * *

molecular target: Histamine H3 receptor (Homo sapiens, UniProt Q9Y5N1); test: Antagonist activity at human histamine 3 receptor by [35S]GTPgammaS binding assay
Sequence (Q9Y5N1 whole entry): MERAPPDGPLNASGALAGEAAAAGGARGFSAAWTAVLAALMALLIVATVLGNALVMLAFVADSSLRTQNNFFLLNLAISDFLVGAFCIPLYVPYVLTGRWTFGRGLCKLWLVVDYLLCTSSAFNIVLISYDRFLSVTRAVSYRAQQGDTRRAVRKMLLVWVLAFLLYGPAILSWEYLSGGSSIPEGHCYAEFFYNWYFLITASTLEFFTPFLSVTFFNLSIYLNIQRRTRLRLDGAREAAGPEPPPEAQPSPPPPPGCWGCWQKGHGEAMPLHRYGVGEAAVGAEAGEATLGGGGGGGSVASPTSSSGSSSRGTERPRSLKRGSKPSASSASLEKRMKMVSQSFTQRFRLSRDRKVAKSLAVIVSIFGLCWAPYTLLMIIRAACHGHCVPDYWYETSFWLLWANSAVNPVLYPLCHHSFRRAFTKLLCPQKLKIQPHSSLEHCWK
pEC50: −log10 of the molar value.
quantity kind: pEC50

(P) C[C@@H]1CCCN1CCCOc1ccc(-c2ccc(=O)n(C)n2)cc1F
(Q) C[C@H](COc1ccc(-c2ccc(=O)n(C)n2)cc1)CN1CCC[C@H]1C
Returns: the label, P or Q , whose recorded pEC50 is the lower number. Field: selected label. Fill in the label of the entry you choose.
Q
(Q: 8.68, P: 8.89)

* * *

experiment: Oral bioavailability in rat; format: ADME, organism-based; details: in vivo
Each record here notes measured bioavailability.

1) C[C@@H]1CCCN1CCCOc1ccc(-c2n[nH]c(=O)cc2-c2ccccn2)cc1 | < 10%

Form field: reported bioavailability of C[C@@H]1CCCN1CCCOc1ccc(-c2ccc(=O)n(-c3ncccn3)n2)cc1
56%

Item under review: C[C@@H]1CCCN1CCCOc1ccc(-c2cc(-c3ccccn3)c(=O)[nH]n2)cc1 . Reported bioavailability?
< 10%

* * *

Quick reference for half-life among some compounds
assay: Half life in mouse liver microsomes; assay type: ADME, Microsome

Before answering, review these 2 worked examples.
1) C[C@@H]1CCCN1CCCOc1ccc(-c2ccc(=O)n(-c3ncccn3)n2)cc1 | > 40 min
2) C[C@H](COc1ccc(-c2ccc(=O)n(C)n2)cc1)CN1CCC[C@H]1C | > 40 min

Report half-life for C[C@@H]1CCCN1CCCOc1ccc(-c2ccc(=O)n(C)n2)cc1F please.
> 40 min

* * *

compounds and their reported half-life
test: Half life in rat liver microsomes; assay type: ADME, Microsome

Sample answers from the record:
1. C[C@@H]1CCCN1CCCOc1ccc(-c2ccc(=O)n(-c3ncccn3)n2)cc1 | > 40 min
2. C[C@H](COc1ccc(-c2ccc(=O)n(C)n2)cc1)CN1CCC[C@H]1C | > 40 min

Consider the record given below.
What half-life value was documented for this compound, C[C@@H]1CCCN1CCCOc1ccc(-c2ccc(=O)n(C)n2)cc1F ?
> 40 min

* * *

assay: Half life in rat at 5 mg/kg, po after 6 hrs; assay type: ADME, organism-based; parameters: dose 5 mg/kg, route oral; conditions: in vivo
quantity kind: half-life (h)

1. C[C@H](COc1ccc(-c2ccc(=O)n(C)n2)cc1)CN1CCC[C@H]1C | 4.3

(P) C[C@@H]1CCCN1CCCOc1ccc(-c2ccc(=O)n(C)n2)cc1F
(Q) C[C@@H]1CCCN1CCCOc1ccc(-c2ccc(=O)n(C)n2)cc1
Could you please tell me which of these two has the higher half-life: P or Q ? Answer by quoting the chosen item's label.
Q
